List of inhibition values.
PROTOCOL DETAILS: inhibitors of TNFa-induced NFkB p65 translocation, primary screen, imaging, HUVEC, MLSMR starter and 10KST1 sets (AID 438);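 further: compound added about 3h40 before a 20 min TNFalpha stimulation; signal is the nuclear over cytoplasmic p65 intensity ratio per well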
RECORDED CONDITIONS: HUVEC TNFa-induced p65 nuclear translocation; at 2 µM, hits give high values, 0% TNFa-plus-vehicle, 100% no-TNFa wells
Give the value, in units of %, as a plain number.

COMPOUND: CC1(C)CC(=O)C2=C(C1)N(Cc1ccco1)C(=O)C2(NC(=O)C1CCCCC1)C(F)(F)F (stereo unspecified)
inhibition, %: -2.6

QUERY: # query: inhibition of entry COC(=O)c1cc(Br)c(=O)n(CCC2=CCCCC2)c1
RESULT: 0

QUERY: Likewise for Cc1ccc2c(c1)-c1cc(C)nn1C(c1ccc3c(c1)OCO3)N2 (stereo unspecified) ?
RESULT: 4.2

QUERY: Try this compound next: CSc1ccccc1NS(=O)(=O)c1ccccc1
RESULT: -1

QUERY: Further, for Cc1ccc(F)cc1NC(=O)Cc1nn(C)c(=O)c2ccccc12 ?
RESULT: 0.9

QUERY: One more compound: CC(NC(=O)OCc1ccccc1)C(=O)N1CC(O)CC1C(=O)O (stereo unspecified)
RESULT: 0.9

QUERY: Then what about the compound CCN(CC)CCNC(=O)C1CCN(S(=O)(=O)N2CCCCC2)CC1 ?
RESULT: 2.6

QUERY: Request: Cc1ccc(N2CC(C(=O)Nc3ccc4c(c3)OCO4)CC2=O)cc1 (stereo unspecified)
RESULT: -19.5

QUERY: Now the compound Cc1ccc(C(=O)Nc2nc3c(s2)CCCC3)o1
RESULT: -4
